Tested on: CP217
test: qHTS profiling for inhibitors of Plasmodium falciparum proliferation (AID 504749); further: nearly all actives have a fitted effect of over 60% in size
conditions.used: P. falciparum in erythrocytes, SYBR Green DNA, 72 h; series mostly up to 28.7 µM
Method: NIH National Institute of Allergy and Infectious Diseases [NIAID] NIH Chemical Genomics Center [NCGC] […] Because mature erythrocytes lack DNA, only Plasmodium-derived DNA is detected. NCGC Assay Protocol Summary: The SYBR Green viability assay was adapted from a method described previously (Plouffe et al., 2008). […] The following morning, fluorescence intensity at 485(14) nm excitation and 535(25) nm emission wavelengths was measured on an EnVision (Perkin Elmer) plate reader. […]
Records with an inconclusive call do not appear. Active and inactive are the calls of the source. The call rests on the fitted dose curve; in most records, active means well fitted inhibition curve with a large enough effect; inconclusive means small, poorly fitted or top-dose-only effect; inactive means flat fitted curve, though single readings scatter.
Mark one answer only. Choices: active, inactive

1. CC(c1cc2ccccc2s1)N(O)C(N)=O (stereo not given)    inactive
2. CCOC(=O)C1=C[C@]2(CC)CCCN3CCc4c(n1c1ccccc41)[C@@H]32    active
3. O=c1n(CCCN2CCN(c3cccc(Cl)c3)CC2)nc2ccccn12    inactive

For CC(C)NCC(O)COc1ccc(COCCOC(C)C)cc1 (stereo not given) , what call appears in the results of this test?
inactive

For CNC[C@H](O)c1cccc(O)c1 , what call appears in the results of this test?
inactive

For NCCCC(N)(C(=O)O)C(F)F (stereo not given) , what call appears in the results of this test?
inactive

For Clc1cccc(Cl)c1NC1=NCCN1 , what call appears in the results of this test?
inactive

For NNCCc1ccccc1 , what call appears in the results of this test?
inactive

For CCCCNc1cc(C(=O)O)cc(S(N)(=O)=O)c1Oc1ccccc1 , what call appears in the results of this test?
inactive

For NC[C@H](O)c1ccc(O)c(O)c1 , what call appears in the results of this test?
inactive
